- experimental_system: T1, human vascular endothelial growth factor receptor-2 Fc chimera (KDR-Fc) (human, UniProt P35968 20-764)
- T1 construct: range 1-764; also called human VEGFR-2; VEGF-R2-Fc; not shown: human IgG1 Fc
- T1 sequence (P35968 20-764 limits assumed, change not shown, form in doubt): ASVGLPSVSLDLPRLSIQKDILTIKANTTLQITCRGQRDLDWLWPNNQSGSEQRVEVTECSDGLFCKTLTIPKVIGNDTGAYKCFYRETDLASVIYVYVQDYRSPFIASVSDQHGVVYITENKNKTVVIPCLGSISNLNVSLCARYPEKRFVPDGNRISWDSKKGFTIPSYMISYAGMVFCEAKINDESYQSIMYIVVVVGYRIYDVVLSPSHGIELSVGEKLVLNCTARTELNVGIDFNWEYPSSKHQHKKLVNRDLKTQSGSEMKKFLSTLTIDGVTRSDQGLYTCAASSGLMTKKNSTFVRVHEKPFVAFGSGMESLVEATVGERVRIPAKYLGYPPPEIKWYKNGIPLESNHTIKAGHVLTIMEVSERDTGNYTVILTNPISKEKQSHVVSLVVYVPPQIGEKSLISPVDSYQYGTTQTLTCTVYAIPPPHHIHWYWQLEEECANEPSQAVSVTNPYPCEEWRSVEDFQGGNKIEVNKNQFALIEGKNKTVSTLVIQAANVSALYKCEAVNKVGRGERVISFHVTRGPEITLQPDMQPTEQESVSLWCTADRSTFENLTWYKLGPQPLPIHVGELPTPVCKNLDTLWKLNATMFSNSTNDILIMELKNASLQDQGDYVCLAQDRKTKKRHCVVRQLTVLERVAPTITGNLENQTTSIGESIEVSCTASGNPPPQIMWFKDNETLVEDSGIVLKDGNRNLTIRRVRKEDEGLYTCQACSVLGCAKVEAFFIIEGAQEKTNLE
- assay_info: radioactive equilibrium binding, 1 nM KDR-Fc
endpoint: Binding to 1 nM KDR, % (%)

Completed entries (count: 8):
binder="2′Del C8 PR4 (designed binder, Del 1-8) EVVAATPTSLLISWRHPHFPTRYYRITYGETGGNSPVQEFTVPLQPPTATISGLKPGVDYTITGYAVTTAHNGHELLTPISINYRT" result_value=15
binder="3′G2 PR4 (designed binder, Del 1-8) EVVAATPTSLLISWRHPHFPTRYYRITYGETGGNSPVQEFTVPLQPPTATISGLKPGVDYTITGYAVTLAQNGHELITPISINYRT" result_value=15
binder="3′H1 PR4 (designed binder, Del 1-8) EVVAATPTSLLISWRHPHFPTRYYRITYGETGGNSPVQEFTVPLQPPTATISGLKPGVDYTITGYAVTFAQNDHQLFTPISINYRT" result_value=22
binder="1′DelD1 PR4 (designed binder, Del 1-8) EVVAATPTSLLISWRHPHFPTRYYRITYGETGGNSPVQEFTVPLQPPTATISGLKPGVDYTITGYAVTVTQNDHELLTPISINYRT" result_value=16
binder="3′D9 PR4 (designed binder, Del 1-8) EVVAATPTSLLISWRHPHFPTRYYRITYGETGGNSPVQEFTVPLQPPTATISGLKPGVDYTITGYAVTGYYNDRELLTPISINYRT" result_value=30
binder="3′F9 PR4 (designed binder, Del 1-8) EVVAATPTSLLISWRHPHFPTRYYRITYGETGGNSPVQEFTVPLQPPTATISGLKPGVDYTITGYAVTLGPNDRELMTPISINYRT" result_value=18
binder="4′B3 PR4 (designed binder, Del 1-8) EVVAATPTSLLISWRHPHFPTRYYRITYGETGGNSPVQEFTVPLQPPTATISGLKPGVDYTITGYAVTMAQNNRELLTPISINYRT" result_value=42
binder="2′Del E3 PR4 (designed binder, Del 1-8) EVVAATPTSLLISWRHPHFPTRYYRITYGETGGNSPVQEFTVPLQPPTATISGLKPGVDYTITGYAVTLGPYEHELLTPISINYRT" result_value=33

A = 3′B1 PR4 (designed binder, Del 1-8) EVVAATPTSLLISWRHPHFPTRYYRITYGETGGNSPVQEFTVPLQPPTATISGLKPGVDYTITGYAVTEARNGRELLTPISINYRT
B = 4C9 PR3 (designed binder, Del 1-8) EVVAATPTSLLISWRHPHFPTRYYRITYGETGGNSPVQEFTVPLQPPTATISGLKPGVDYTITGYAVTLAQNDHELLTPISINYRT
C = 2′Del D3 PR4 (designed binder, Del 1-8) EVVAATPTSLLISWRHPHFPTRYYRITYGETGGNSPVQEFTVPLQPPTATISGLKPGVDYTITGYAVTSGLNDRVLFIPISINYRT
Q: Arrange items by their Binding to 1 nM KDR, % values in increasing order. Reply with the item labels sorted in the order that was asked for.
A: B, A, C
(B: 16%, A: 25%, C: 38%)

A = 3′A8 PR4 (designed binder, Del 1-8) EVVAATPTSLLISWRHPHFPTRYYRITYGETGGNSPVQEFTVPLQPPTATISGLKPGVDYTITGYAVTVAWDDHELLTPISINYRT
B = 1′DelH12 PR4 (designed binder, Del 1-8) EVVAATPTSLLISWRHPHFPTRYYRITYGETGGNSPVQEFTVPLQPPTATISGLKPGVDYTITGYAVTVAQNERELFTPISINYRT
Q: Please let me know which one, A or B , has a lower measured Binding to 1 nM KDR, % value. State your choice using its label.
A: B

A = 1′DelF3 PR4 (designed binder, Del 1-8) EVVAATPTSLLISWRHPHFPTRYYRITYGETGGNSPVQEFTVPLQPPTATISGLKPGVDYTITGYAVTMAQNDHKLFTPISINYRT
B = 2′Del B2 PR4 (designed binder, Del 1-8) EVVAATPTSLLISWRHPHFPTRYYRITYGETGGNSPVQEFTVPLQPPTATISGLKPGVDYTITGYAVTTGWNGNELFTPISINYRT
Q: # returns the entry with the larger Binding to 1 nM KDR, %; inputs A and B Kindly give the label for the entry you pick.
A: B
(B: 29%, A: 16%)
